Data provenance: patent US20140248295A1

# Assay target: T1, Recombinant sCD4 comprising the full-length extracellular domain of human CD4 (human, UniProt P01730 26-396)
# T1 construct: also called human sCD4 protein; CD4 protein
# Assay: SPR (Biacore), antibody on CM5 chip by amine coupling, sCD4 as analyte, 25 C
Attribute measured: Kd (nM)
Entry rule: numbers only, all in nM.

# binder Ibalizumab light chain mutant LM60 (antibody, human IgG1, kappa, V domains shown) VH: QVQLQQSGPEVVKPGASVKMSCKASGYTFTSYVIHWVRQKPGQGLDWIGYINPYNDGTDYDEKFKGKATLTSDTSTSTAYMELSSLRSEDTAVYYCAREKDNYATGAWFAYWGQGTLVTVSS VL: DIVMTQSPDSLAVSLGERVTMNCKSSQSLLYSTNQKNYLAWYQQKPGQSPKLLIYWASTRESGVPNATSGSGSGTDFTLTISSVQAEDVAVYYCQQYYSYRTFGGGTKLEIKR ; its Kd = 0.19

---
# binder Ibalizumab light chain mutant LM52 (antibody, human IgG1, kappa, V domains shown, also called iMab-LM52; Ibalizumab LM52) VH: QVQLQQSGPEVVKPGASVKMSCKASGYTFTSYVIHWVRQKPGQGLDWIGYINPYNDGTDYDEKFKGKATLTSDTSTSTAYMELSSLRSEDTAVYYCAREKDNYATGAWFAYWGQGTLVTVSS VL: DIVMTQSPDSLAVSLGERVTMNCKSSQSLLYSTNQKNYLAWYQQKPGQSPKLLIYWANSTESGVPDRFSGSGSGTDFTLTISSVQAEDVAVYYCQQYYSYRTFGGGTKLEIKR ; its Kd = 0.35

# binder Ibalizumab light chain mutant LM30E (antibody, human IgG1, kappa, V domains shown) VH: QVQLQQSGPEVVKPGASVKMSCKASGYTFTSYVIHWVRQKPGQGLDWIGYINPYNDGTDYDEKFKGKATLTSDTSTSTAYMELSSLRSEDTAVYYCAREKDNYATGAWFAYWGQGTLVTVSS VL: DIVMTQSPDSLAVSLGERVTMNCKSSQSLLYSTNNATYLAWYQQKPGQSPKLLIYWASTRESGVPDRFSGSGSGTDFTLTISSVQAEDVAVYYCQQYYSYRTFGGGTKLEIKR ; its Kd = 1.3
